# Tested on: NOMO1
# PROTOCOL SUMMARY: cell viability relative to DMSO control; higher = less cytotoxic
# TEST PARAMETERS: RPMI 5 mM glucose + 10% FBS; 48 h; 0.000781 µM
// reported cell viability for each item listed

| MOLECULE | TARGET DESC | UNIT TAG | cell viability |
| --- | --- | --- | --- |
| COC1=CC=C2CN(C)CC[C@@]34\C=C/[C@H](O)C[C@@H]3OC1=C24 | NOMO1 | % | 128 |
| Cc1ncc([N+](=O)[O-])n1CC(C)O (stereo not given) | NOMO1 | % | 100 |
| CNC(=O)[C@H](CC/1=C/N=C\2/C=C\C\C=C12)NC(=O)[C@H](CC(C)C)CC(=O)NO | NOMO1 | % | 99.5 |
| COc1cccc2c1[C@]13CCN(CC4CC4)[C@H](C2)[C@]1(OC)CCC(=O)C3 | NOMO1 | % | 101 |
| COC(=O)\C1=C\CCN(C)C1 | NOMO1 | % | 84.7 |
